- Test system: human peripheral blood mononuclear cells
- methodSummary: Inhibition of LPS-stimulated TNFα release from human peripheral blood mononuclear cells (TNFα screen)
- Format: cell-based
- reportedConditions: LPS-stimulated human PBMC, 18 hours incubation, TNFα in supernatant by ELISA
- Method: Venous blood is collected from healthy volunteers and the mononuclear cells purified by centrifugation through Histopaque (Ficoll) cushions. TNFα production from these cells is stimulated by addition of lipopolysaccharide. After 18 hours incubation in the presence of LPS, the cell supernatant is removed and the concentration of TNFα in the supernatant determined by ELISA.
property: IC50

1. CSc1cccc(Oc2ncc(F)cc2C(=O)N[C@H]2CC[C@@H](NC(=O)c3cc(C(C)C)n(CCO)n3)CC2)c1 | 2.5 nM
2. CSc1cc(Oc2ncc(F)cc2C(=O)N[C@H]2CC[C@@H](NC(=O)c3ccccc3OCCO)CC2)ccc1F | 0.36 nM
3. CSc1cccc(Oc2ncc(F)cc2C(=O)N[C@H]2CC[C@@H](NC(=O)c3cn(CCO)cn3)CC2)c1 | 1.6 nM
4. CSc1cccc(Oc2ncc(F)cc2C(=O)N[C@H]2CC[C@@H](NC(=O)c3ccc(CO)cc3O)CC2)c1 | 0.6 nM

Measured values drawn from patent US7056934B2 for this set.
